So I've got IC50 readings for HDAC2 (Homo sapiens), take a look.
Give bare numbers, in nM.

Solved entries (count: 2):
{"compound": "NCc1ccc(NC(=O)N(CCCCO)Cc2ccc(C(=O)NO)cc2)cc1 [Compound 6a]", "IC50, nM": 176}
{"compound": "O=C(NO)c1ccc(CN(CCCCO)C(=O)Nc2ccccc2)cc1 [Compound 6c, reference compound]", "IC50, nM": 268}

Request the reported IC50 associated with CCCCN(Cc1ccc(C(=O)NO)cc1)C(=O)Nc1ccc(CN)cc1 [Compound 6b]
281

----------
Biological target: HDAC7 (Homo sapiens, UniProt Q8WUI4)
Sequence (Q8WUI4 whole entry): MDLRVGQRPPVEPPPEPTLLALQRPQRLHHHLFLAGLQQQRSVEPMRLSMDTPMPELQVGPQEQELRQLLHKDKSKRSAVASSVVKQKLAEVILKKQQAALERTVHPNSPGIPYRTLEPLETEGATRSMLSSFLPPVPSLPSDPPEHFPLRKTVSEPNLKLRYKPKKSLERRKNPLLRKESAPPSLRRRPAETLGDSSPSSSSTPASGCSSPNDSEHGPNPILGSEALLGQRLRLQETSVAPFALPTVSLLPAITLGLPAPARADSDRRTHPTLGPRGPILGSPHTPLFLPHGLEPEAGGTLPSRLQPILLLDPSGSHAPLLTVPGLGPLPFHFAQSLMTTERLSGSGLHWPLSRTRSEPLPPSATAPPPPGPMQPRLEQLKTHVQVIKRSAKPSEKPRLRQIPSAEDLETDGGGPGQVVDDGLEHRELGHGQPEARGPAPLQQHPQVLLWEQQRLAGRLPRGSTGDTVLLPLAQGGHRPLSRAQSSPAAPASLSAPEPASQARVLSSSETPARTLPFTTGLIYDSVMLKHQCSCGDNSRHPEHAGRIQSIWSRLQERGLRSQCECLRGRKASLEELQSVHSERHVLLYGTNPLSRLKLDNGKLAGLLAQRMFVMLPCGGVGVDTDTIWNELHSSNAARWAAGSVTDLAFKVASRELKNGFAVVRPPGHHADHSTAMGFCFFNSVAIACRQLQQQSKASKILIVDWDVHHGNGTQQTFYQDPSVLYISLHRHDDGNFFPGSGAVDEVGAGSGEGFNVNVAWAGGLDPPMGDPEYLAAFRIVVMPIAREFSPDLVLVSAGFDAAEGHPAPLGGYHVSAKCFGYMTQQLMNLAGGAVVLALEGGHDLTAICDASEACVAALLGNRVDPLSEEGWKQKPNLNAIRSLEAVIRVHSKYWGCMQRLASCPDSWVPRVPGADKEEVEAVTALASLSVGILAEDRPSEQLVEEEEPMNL
Consider the following compounds; for each one, report its IC50.
Give bare numbers, in nM.

Sample records with IC50:
{"compound": "CCCCN(Cc1ccc(C(=O)NO)cc1)C(=O)Nc1ccc(CN)cc1", "measured attribute": "IC50", "value reported": 9000}
{"compound": "NCc1ccc(NC(=O)N(CCCCO)Cc2ccc(C(=O)NO)cc2)cc1", "measured attribute": "IC50", "value reported": 1470}

The record that follows has no IC50 shown yet.
Entry O=C(NO)c1ccc(CN(CCCCO)C(=O)Nc2ccccc2)cc1 [Compound 6c, reference compound] : reported IC50 = ?
1930

Attribution: patent US20230250054A1
